- Test description: Metabolic stability in human lung S9 fraction assessed as compound remaining at 1 uM measured after 60 mins in presence of NADPH by LC-MS/MS analysis
- Format: ADME
- Condition notes: read-out: Stability
Assay readout: remaining at 1 h, 1 µM (%)

{"Molecule": "COc1ccc(S(=O)(=O)N2CCC[C@H]2C(=O)O[C@@H](Cc2c(Cl)c[n+]([O-])cc2Cl)c2ccc(OC(F)F)c(OCC3CC3)c2)cc1C(=O)N(C)C (relative stereo)", "Meas value": 71.6}
{"Molecule": "CN(C)C(=O)c1cccc(S(=O)(=O)N2CSC[C@H]2C(=O)O[C@@H](Cc2c(Cl)c[n+]([O-])cc2Cl)c2ccc(OC(F)F)c(OCC3CC3)c2)c1", "Meas value": 52.1}
{"Molecule": "CN(C)C(=O)c1cccc(S(=O)(=O)N2CCS[C@H]2C(=O)O[C@@H](Cc2c(Cl)c[n+]([O-])cc2Cl)c2ccc(OC(F)F)c(OCC3CC3)c2)c1", "Meas value": 70.2}
{"Molecule": "CN(C)C(=O)c1cccc(S(=O)(=O)N2CCCC[C@H]2C(=O)O[C@@H](Cc2c(Cl)c[n+]([O-])cc2Cl)c2ccc(OC(F)F)c(OCC3CC3)c2)c1 (relative stereo)", "Meas value": 72.5}
{"Molecule": "COc1ccc(S(=O)(=O)N2CCS[C@H]2C(=O)O[C@@H](Cc2c(Cl)c[n+]([O-])cc2Cl)c2ccc(OC(F)F)c(OCC3CC3)c2)cc1OC (relative stereo)", "Meas value": 50.7}
{"Molecule": "CNC(=O)c1cc(S(=O)(=O)N2CCS[C@H]2C(=O)O[C@@H](Cc2c(Cl)c[n+]([O-])cc2Cl)c2ccc(OC(F)F)c(OCC3CC3)c2)cn1C (relative stereo)", "Meas value": 63.5}
{"Molecule": "COc1ccc(S(=O)(=O)N2CCCC[C@H]2C(=O)O[C@@H](Cc2c(Cl)c[n+]([O-])cc2Cl)c2ccc(OC(F)F)c(OCC3CC3)c2)cc1C(=O)N(C)C (relative stereo)", "Meas value": 59.7}
{"Molecule": "CN(C)C(=O)c1cccc(S(=O)(=O)N2CCC[C@H]2C(=O)O[C@@H](Cc2c(Cl)c[n+]([O-])cc2Cl)c2ccc(OC(F)F)c(OCC3CC3)c2)c1 (relative stereo)", "Meas value": 71.1}
{"Molecule": "Cn1cnc(S(=O)(=O)N2CCS[C@H]2C(=O)O[C@@H](Cc2c(Cl)c[n+]([O-])cc2Cl)c2ccc(OC(F)F)c(OCC3CC3)c2)c1", "Meas value": 77.7}
{"Molecule": "COc1ccc(S(=O)(=O)N2CCS[C@H]2C(=O)O[C@@H](Cc2c(Cl)c[n+]([O-])cc2Cl)c2ccc(OC(F)F)c(OCC3CC3)c2)cc1C(=O)N(C)C (relative stereo)", "Meas value": 71.2}
